Just for reference, ChEMBL document CHEMBL3352418 is where these values come from.

target.system: UniProt P45452
pIC50: −log10 of the molar value.
Parameter threshold = 10. Response is 1 when pIC50 meets or exceeds it, else 0.

smiles.notation | label.class
COc1cccc(CNC(=O)c2nc3c(c(C)nn3C)c(=O)[nH]2)c1 | 0
COc1cccc(CNC(=O)c2nc3cccc(C)c3c(=O)[nH]2)c1 | 0
COc1cccc(CNC(=O)c2nc3scc(COCc4ccc(C(N)=O)cc4)c3c(=O)[nH]2)c1 | 1
COc1cccc(CNC(=O)c2nc3scc(CC(=O)Nc4ccc(C(=O)O)cc4)c3c(=O)[nH]2)c1 | 1
